Molecular target: SP receptor (Rattus norvegicus)
Construct: from tissue; host or cells: rat submaxillary gland (crude tissue suspension)
Sequence (P14600 whole entry): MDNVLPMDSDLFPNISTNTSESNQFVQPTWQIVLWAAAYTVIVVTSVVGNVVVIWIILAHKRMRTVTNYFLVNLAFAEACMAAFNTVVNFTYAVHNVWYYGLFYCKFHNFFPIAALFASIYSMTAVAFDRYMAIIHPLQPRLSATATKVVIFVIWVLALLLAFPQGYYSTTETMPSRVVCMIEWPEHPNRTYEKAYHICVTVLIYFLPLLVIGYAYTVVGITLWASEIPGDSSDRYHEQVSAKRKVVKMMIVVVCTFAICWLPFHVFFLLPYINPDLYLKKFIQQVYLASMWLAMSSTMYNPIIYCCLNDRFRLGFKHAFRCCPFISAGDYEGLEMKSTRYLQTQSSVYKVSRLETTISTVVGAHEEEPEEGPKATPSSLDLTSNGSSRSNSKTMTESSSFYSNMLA
Test: 3H-SP binding test, rat submaxillary gland tissue
Conditions: 30 μM test compound; rat submaxillary gland tissue (Examples 1-34); read-out: 3H-SP Binding % Inhibition
Non-standard residues stand in square brackets, D forms with d. Residues, ends and D or L forms follow the SMILES beside them. NMeF = CN[C@@H](Cc1ccccc1)C(=O)O; Dap(Me2) = CN(C)C[C@H](N)C(=O)O; NMeL = CN[C@@H](CC(C)C)C(=O)O; Nle = CCCC[C@H](N)C(=O)O; Nphe = O=C(O)CNCc1ccccc1; Sar = CNCC(=O)O
# inhibition at 30 µM per entry
parameter: inhibition at 30 µM (%)

1) CSCC[C@H](NC(=O)[C@H](CC(C)C)NC(=O)[C@@H](Cc1ccccc1)NC(=O)CN(Cc1ccccc1)C(=O)[C@@H](Cc1ccccc1)NC(=O)[C@@H]1CCCN1)C(N)=O [Example 30, HPro-DPhe-Bgl-DPhe-Leu-MetNH2] (H-P[dF][Nphe][dF]LM-NH2)	40
2) CSCC[C@H](NC(=O)[C@H](CC(C)C)NC(=O)CN(C)C(=O)[C@H](Cc1ccccc1)NC(=O)[C@H](Cc1ccccc1)NC(=O)[C@@H]1CCCN1)C(N)=O [Example 3, HPro-Phe-Phe-Sar-Leu-MetNH2] (H-PFF[Sar]LM-NH2)	93
3) CSCC[C@H](NC(=O)[C@H](CC(C)C)NC(=O)[C@H](CCC(=O)O)NC(=O)[C@H](Cc1ccccc1)NC(=O)[C@H](Cc1ccccc1)NC(=O)[C@@H]1CCCN1)C(N)=O [Example 15, HPro-Phe-Phe-Glu-Leu-MetNH2] (H-PFFELM-NH2)	10
4) CSCC[C@H](NC(=O)[C@@H](CC(C)C)NC(=O)CNC(=O)[C@H](Cc1ccccc1)NC(=O)[C@H](Cc1ccccc1)NC(=O)[C@@H]1CCCN1)C(N)=O [Example 4, HPro-Phe-Phe-Gly-DLeu-MetNH2] (H-PFFG[dL]M-NH2)	17
5) CSCC[C@H](NC(=O)[C@H](CN(C)C)NC(=O)CNC(=O)[C@H](Cc1ccccc1)NC(=O)[C@H](Cc1ccccc1)NC(=O)[C@@H]1CCCN1)C(N)=O [Example 16, HPro-Phe-Phe-Gly-Gal-MetNH2] (H-PFFG[Dap(Me2)]M-NH2)	13
6) CSCC[C@H](NC(=O)[C@H](CC(C)C)N1CC[C@H](NC(=O)[C@H](Cc2ccccc2)NC(=O)[C@H](Cc2ccccc2)NC(=O)[C@@H]2CCCN2)C1=O)C(N)=O	10
7) CSCC[C@H](NC(=O)[C@H](CC(C)C)NC(=O)CNC(=O)[C@H](Cc1ccccc1)N(C)C(=O)[C@H](Cc1ccccc1)NC(=O)[C@@H]1CCCN1)C(N)=O [Example 2, HPro-Phe-MePhe-Gly-Leu-MetNH2] (H-PF[NMeF]GLM-NH2)	25
8) CSCC[C@H](NC(=O)[C@H](CC(C)C)N(C)C(=O)CNC(=O)[C@H](Cc1ccccc1)NC(=O)[C@H](Cc1ccccc1)NC(=O)[C@@H]1CCCN1)C(N)=O [Example 5, HPro-Phe-Phe-Gly-MeLeu-MetNH2] (H-PFFG[NMeL]M-NH2)	75
9) CCCC[C@H](NC(=O)[C@H](CC(C)C)NC(=O)CNC(=O)[C@H](Cc1ccccc1)NC(=O)[C@H](Cc1ccccc1)NC(=O)[C@@H]1CCCN1)C(N)=O [Example 8, HPro-Phe-Phe-Gly-Leu-NleNH2] (H-PFFGL[Nle]-NH2)	49
